Ref: patent US20130251703A1

target: T1, Hu HER3: CD33-[Human HER3, residues 20-640]-TAG (human, UniProt P21860 20-640); test: solution equilibrium titration (SET), IgG, ECL read-out
T1 construct: also called hu HER3-Tag; HER3-Tag; not shown: C-terminal TAG (e.g. FLAG TAG)
valueType: Kd (nM)

# binder, numericResult
rows = [
    ("MOR12514 (antibody, human IgG1, lambda, V domains shown, Tested as IgG) VH: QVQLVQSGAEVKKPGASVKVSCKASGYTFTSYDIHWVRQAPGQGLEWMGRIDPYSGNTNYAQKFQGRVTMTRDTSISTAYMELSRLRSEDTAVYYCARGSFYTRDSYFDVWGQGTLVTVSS VL: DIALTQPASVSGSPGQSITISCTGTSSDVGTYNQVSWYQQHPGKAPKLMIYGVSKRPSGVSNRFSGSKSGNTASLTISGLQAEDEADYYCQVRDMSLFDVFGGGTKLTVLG", 0.97),
    ("MOR12606 (antibody, human IgG1, kappa, V domains shown, Tested as IgG) VH: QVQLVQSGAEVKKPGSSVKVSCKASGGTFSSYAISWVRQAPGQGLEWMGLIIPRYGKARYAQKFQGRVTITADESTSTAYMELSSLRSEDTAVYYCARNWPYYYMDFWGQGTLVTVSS VL: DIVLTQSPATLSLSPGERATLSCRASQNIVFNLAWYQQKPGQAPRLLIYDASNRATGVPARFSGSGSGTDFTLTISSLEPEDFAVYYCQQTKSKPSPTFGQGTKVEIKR", 1.5),
    ("MOR13658 (antibody, human IgG1, lambda, V domains shown, Tested as IgG) VH: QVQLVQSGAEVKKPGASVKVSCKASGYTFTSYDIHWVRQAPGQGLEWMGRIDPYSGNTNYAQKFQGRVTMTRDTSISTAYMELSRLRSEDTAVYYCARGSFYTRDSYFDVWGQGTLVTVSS VL: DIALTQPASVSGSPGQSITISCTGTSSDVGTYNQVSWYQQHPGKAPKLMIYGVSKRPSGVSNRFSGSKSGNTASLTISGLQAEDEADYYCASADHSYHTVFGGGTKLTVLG", 0.027),
]
